system: T1, recombinant human activated Factor VII (FVIIa) (human, UniProt P08709 61-212; P08709 213-466, ten glutamate residues of the Gla domain may be gamma-carboxylated)
T1 construct: chains tethered by a disulfide bond; also called Factor VIIa; rFVIIa
T1 sequence 1: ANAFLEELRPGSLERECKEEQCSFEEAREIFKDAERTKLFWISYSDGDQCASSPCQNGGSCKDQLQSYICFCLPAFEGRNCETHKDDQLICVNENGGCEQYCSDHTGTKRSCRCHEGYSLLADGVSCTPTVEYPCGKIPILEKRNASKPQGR
T1 sequence 2: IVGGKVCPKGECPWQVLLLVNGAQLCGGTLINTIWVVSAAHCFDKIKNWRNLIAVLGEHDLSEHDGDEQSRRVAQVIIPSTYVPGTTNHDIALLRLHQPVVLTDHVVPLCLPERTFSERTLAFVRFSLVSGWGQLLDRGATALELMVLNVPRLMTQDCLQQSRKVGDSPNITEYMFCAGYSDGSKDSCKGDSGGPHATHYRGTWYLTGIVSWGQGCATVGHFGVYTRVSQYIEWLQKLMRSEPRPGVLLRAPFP
experiment.notes: BLI (Fortebio)
pKd: −log10 of the molar value.
pKd: recorded values

binder	pKd
VH SEQ ID NO 618 / VL SEQ ID NO 350 (antibody, IgG4, V domains shown, humanized 11F2; IgG4 S228P/kappa) VH: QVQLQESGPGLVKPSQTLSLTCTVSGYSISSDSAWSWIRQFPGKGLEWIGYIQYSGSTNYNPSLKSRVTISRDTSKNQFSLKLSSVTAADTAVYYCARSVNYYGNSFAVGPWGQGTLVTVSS VL: EIVLTQSPATLSLSPGERATLSCRASQGISDYLHWYQQKPGQAPRLLIKYTSQPATGIPARFSGSGSGTDFTLTISSLEPEDFAVYYCQNGHSFPLTFGAGTKLELK	9.00
VH SEQ ID NO 610 / VL SEQ ID NO 502 (antibody, IgG4, V domains shown, humanized 11F2; IgG4 S228P/kappa) VH: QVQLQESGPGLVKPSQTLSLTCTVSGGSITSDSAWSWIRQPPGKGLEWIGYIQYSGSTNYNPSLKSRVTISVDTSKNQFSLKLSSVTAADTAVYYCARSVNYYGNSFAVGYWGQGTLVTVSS VL: EIVLTQSPATLSLSPGERATLSCRASQGVSDYLHWYQQKPGQAPRLLIKYTSQPATGIPARFSGSGSGTDFTLTISSLEPEDFAVYYCQNGHSFPLTFGQGTKLEIK	7.77
VH SEQ ID NO 570 / VL SEQ ID NO 478 (antibody, IgG4, V domains shown, humanized 11F2; IgG4 S228P/kappa) VH: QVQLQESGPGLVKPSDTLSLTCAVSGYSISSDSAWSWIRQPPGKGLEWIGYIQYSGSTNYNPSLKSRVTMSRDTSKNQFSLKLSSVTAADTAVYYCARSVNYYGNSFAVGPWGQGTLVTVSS VL: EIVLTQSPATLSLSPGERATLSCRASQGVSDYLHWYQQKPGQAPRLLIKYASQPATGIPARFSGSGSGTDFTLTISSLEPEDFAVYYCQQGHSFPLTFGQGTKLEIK	8.72
